target: PD-1/PD-L1 (Homo sapiens, UniProt Q9NZQ7); construct: Recombinant human PD-L1 protein (19-238) with a His-tag at the C-terminus; purchased AcroBiosystems PD1-H5229 (PD-L1); PD1-H5257 (PD-1); experiment: PD-1/PD-L1 homogenous time-resolved fluorescence (HTRF) binding assay; conditions: recombinant human PD-L1 (19-238) His-tag / human PD-1 (25-167) Fc tag, class symbols
Sequence (Q9NZQ7 19-238): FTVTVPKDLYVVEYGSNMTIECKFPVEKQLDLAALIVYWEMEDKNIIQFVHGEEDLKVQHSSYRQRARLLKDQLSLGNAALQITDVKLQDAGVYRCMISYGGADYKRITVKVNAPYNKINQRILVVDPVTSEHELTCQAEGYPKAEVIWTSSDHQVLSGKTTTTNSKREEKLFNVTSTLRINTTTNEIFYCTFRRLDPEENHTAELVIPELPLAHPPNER
measurement type: IC50

Recorded IC50, per entry:
Cc1nc(C(=O)N2CCc3c(-c4cccc5c4CCN5C(=O)c4ncc(CN(C)CCO)s4)cccc32)sc1CN(C)C [Example 115]	< 0.025 µM
Cc1c(NC(=O)c2nnc([C@H](C)N)s2)cccc1-c1cccc(NC(=O)c2nnc([C@H](C)N)s2)c1C [Example 31]	< 0.025 µM
Cc1c(-c2cccc(N(C)C(=O)c3nc4ccc(N)cc4s3)c2C)cccc1N(C)C(=O)c1nc2c(s1)CNCC2 [Example 21]	0.1 to 0.2 µM
Cc1c(Nc2nccc3cc(CNC(C)C(=O)O)cnc23)cccc1-c1cccc(Nc2nccc3cc(CNC(C)C(=O)O)cnc23)c1C (centres unmarked) [Example 140]	< 0.025 µM
Cc1ccc(-c2ccc(C)c(NC(=O)c3nc4c(s3)CNCC4)c2C)c(C)c1NC(=O)c1nc2c(s1)CNCC2 [Example 94]	< 0.025 µM

Task item: GET /values?readout=IC50&item= COC(=O)NCCN1CCc2nc(C(=O)N3CCc4c(-c5cccc6c5CCN6C(=O)c5nc6c(s5)CN(CCNC(=O)OC)CC6)cccc43)sc2C1 [Example 130]
Reply: < 0.025 µM

Task item: # get_value(readout='IC50', item= O=C(c1nc2c(s1)CN(CC(F)F)CC2)N1CCc2c(-c3cccc4c3CCN4C(=O)c3nc4c(s3)CN(CC(F)F)CC4)cccc21 [Example 85] )
Reply: 0.025 to 0.1 µM

Task item: Which IC50 is listed for CNCc1cnc(C(=O)N2CCc3c(-c4cccc5c4CCN5C(=O)c4ncc(CNC)s4)cccc32)s1 [Example 113] ?
Reply: < 0.025 µM

Task item: Which measured IC50 value corresponds to Cc1nc(C(=O)Nc2cccc(-c3cccc(NC(=O)c4nc(C)c(CN5CCCC[C@H]5C(=O)O)s4)c3Cl)c2C)sc1CN1CCCC[C@H]1C(=O)O [Example 54] ?
Reply: < 0.025 µM

Task item: Request the reported IC50 associated with Cc1c(-c2cccc(N(C)Cc3nc4c(s3)CNCC4)c2C)cccc1N(C)Cc1nc2c(s1)CNCC2 [Example 24]
Reply: 0.1 to 0.2 µM

Task item: Which IC50 reading was recorded for the molecule COC(=O)Cn1cc(CN2CCc3nc(C(=O)N4CCc5c(-c6cccc7c6CCN7C(=O)c6nc7c(s6)CN(Cc6cn(CC(=O)OC)nn6)CC7)cccc54)sc3C2)nn1 [Example 135] ?
Reply: < 0.025 µM

Task item: Dear colleague, I am looking for the recorded IC50 of the following molecule: Cc1c(NC(=O)c2cn3c(n2)CNCC3)cccc1-c1cccc(NC(=O)c2cn3c(n2)CNCC3)c1C [Example 8]
Reply: < 0.025 µM

Task item: I'd like to know its IC50. The molecule in question is Cc1c(NC(=O)c2nnc([C@@H]3CCCN3)s2)cccc1-c1cccc(NC(=O)c2nnc([C@@H]3CCCN3)s2)c1C [Example 3]
Reply: < 0.025 µM

Task item: For the molecule shown here, Cc1c(NC(=O)c2nc3c(s2)CNCC3)cccc1-c1cccc(NC(=O)c2nc3c(s2)CNCC3)c1Cl [Example 48] , give the reported IC50.
Reply: < 0.025 µM

====

target: PD-1/PD-L1 (Homo sapiens, UniProt Q9NZQ7); construct: Recombinant human PD-L1 protein (19-238) with a His-tag at the C-terminus; purchased AcroBiosystems PD1-H5229 (PD-L1); PD1-H5257 (PD-1); experiment: PD-1/PD-L1 homogenous time-resolved fluorescence (HTRF) binding assay; conditions: recombinant human PD-L1 (19-238) His-tag / human PD-1 (25-167) Fc tag, class symbols
pIC50: −log10 of the molar value.
measurement type: pIC50

COC(=O)NCC1(N2CCc3nc(C(=O)N4CCc5c(-c6cccc7c6CCN7C(=O)c6nc7c(s6)CN(C6(CNC(=O)OC)CC6)CC7)cccc54)sc3C2)CC1 [Example 131]	7.00 to 7.60

Task item: Form field: reported pIC50 of Cc1c(NC(=O)c2nc3c(s2)CN(C(C)C)CC3)cccc1-c1cccc(NC(=O)c2nc3c(s2)CN(C(C)C)CC3)c1C [Example 77]
Reply: 7.00 to 7.60

Task item: Requested read-out: pIC50. Entry: Cc1c(Nc2nccc3cc(CNCC(=O)O)cnc23)cccc1-c1cccc(Nc2nccc3cc(CNCC(=O)N(C)C)cnc23)c1C [Example 148]
Reply: > 7.60

Task item: Suppose we examine the compound Cc1c(Nc2nccc3cc(CNCC(=O)N(C)C)cnc23)cccc1-c1cccc(Nc2nccc3cc(CNCC(=O)N(C)C)cnc23)c1C [Example 145] ; what pIC50 value has been reported?
Reply: > 7.60

Task item: Data request, read-out pIC50, for Cc1c(NC(=O)c2nnc(CNC(=N)N)s2)cccc1-c1cccc(NC(=O)c2nnc(CNC(=N)N)s2)c1C [Example 37]
Reply: > 7.60

Task item: Field request: pIC50 | item: Cc1c(NCc2nc3c(s2)CNCC3)cccc1-c1cccc(NCc2nc3c(s2)CNCC3)c1C [Example 25]
Reply: 7.00 to 7.60

====

molecular target: PD-1/PD-L1 (Homo sapiens); construct: Recombinant human PD-L1 protein (19-238) with a His-tag at the C-terminus; purchased AcroBiosystems PD1-H5229 (PD-L1); PD1-H5257 (PD-1); experiment: PD-1/PD-L1 homogenous time-resolved fluorescence (HTRF) binding assay; settings: recombinant human PD-L1 (19-238) His-tag / human PD-1 (25-167) Fc tag, class symbols
pIC50: −log10 of the molar value.
pIC50: recorded values

Below are worked cases with known answers.
CN(CCO)Cc1cnc(C(=O)N2CCc3c(-c4cccc5c4CCN5C(=O)c4ncc(CN(C)CCO)s4)cccc32)s1	> 7.60
Cc1nc(C(=O)Nc2cccc(-c3cccc4c3CCN4C(=O)c3nc(C)c(CN[C@H](C(=O)O)C4CCOCC4)s3)c2C)sc1CN[C@H](C(=O)O)C1CCOCC1	> 7.60

Task item: Request: pIC50, test system PD-1/PD-L1 (Homo sapiens), entry CN(C)C(=O)CN1CCc2nc(C(=O)N3CCc4c(-c5cccc6c5CCN6C(=O)c5nc6c(s5)CN(CC(=O)N(C)C)CC6)cccc43)sc2C1
Reply: > 7.60

Task item: Record lookup: for PD-1/PD-L1 (Homo sapiens), what pIC50 belongs to Cc1c(NC(=O)c2cn3c(n2)CN(C(C)CO)CC3)cccc1-c1cccc(NC(=O)c2cn3c(n2)CN(C(C)CO)CC3)c1C (stereo not drawn) ?
Reply: > 7.60

Task item: Record Cc1c(-c2cccc(N(C)C(=O)c3cc4c(s3)CNCC4)c2C)cccc1N(C)C(=O)c1cn2c(n1)CNCC2 : what is its pIC50 with PD-1/PD-L1 (Homo sapiens)?
Reply: 6.70 to 7.00

Task item: Look up pIC50 with PD-1/PD-L1 (Homo sapiens) for this compound: O=C(Nc1cccc(-c2cccc(NC(=O)c3ncc(CN4C[C@H](O)C[C@H]4C(=O)O)s3)c2Cl)c1Cl)c1ncc(CN2C[C@H](O)C[C@H]2C(=O)O)s1
Reply: > 7.60

====

biological target: PD-1/PD-L1 (Homo sapiens, UniProt Q9NZQ7); construct: Recombinant human PD-L1 protein (19-238) with a His-tag at the C-terminus; purchased AcroBiosystems PD1-H5229 (PD-L1); PD1-H5257 (PD-1); test: PD-1/PD-L1 homogenous time-resolved fluorescence (HTRF) binding assay; details: recombinant human PD-L1 (19-238) His-tag / human PD-1 (25-167) Fc tag, class symbols
pIC50: −log10 of the molar value.
measurement type: pIC50

Cc1c(NC(=O)c2nc3c(s2)CNCC3)cc(F)cc1-c1cccc2c1CCN2C(=O)c1nc2c(s1)CNCC2 [Example 95]	> 7.60
Cc1c(NC(=O)c2nc3cc(N)ccc3[nH]2)cccc1-c1cccc(NC(=O)c2nc3c(s2)CNCC3)c1C [Example 12]	7.00 to 7.60
Cc1c(NC(=O)c2nnc(C3(NC(=N)N)CCC3)s2)cccc1-c1cccc(NC(=O)c2nnc(C3(NC(=N)N)CCC3)s2)c1C [Example 38]	> 7.60
Cc1c(NC(=O)c2nc3c(s2)CNCC3)cccc1-c1cccc(NC(=O)c2nc3ccc(N)cc3s2)c1C [Example 11]	6.70 to 7.00
Cc1c(NC(=O)c2cn3c(n2)CNCC3)cccc1-c1cccc(NC(=O)c2cc3c(s2)CCNC3)c1C [Example 35]	> 7.60
CC(C)(C(=O)NS(C)(=O)=O)N1CCc2nc(C(=O)N3CCc4c(-c5cccc6c5CCN6C(=O)c5nc6c(s5)CN(C(C)(C)C(=O)NS(C)(=O)=O)CC6)cccc43)sc2C1 [Example 128]	7.00 to 7.60

Please examine the following record next.
Task item: # query: pIC50 of entry Cc1c(Nc2nccc3cc(CNCCO)cnc23)cccc1-c1cccc(Nc2nccc3cc(NCCO)cnc23)c1C [Example 6]
Reply: > 7.60
